Assay remarks: physchem
Applied conditions: organic solvent or mixture, thermodynamic from solid, Solubility in PEG400 (mg/mL)
# maps each entry to its solubility at 4 h

[
  {
    "Item smiles": "CCNC(=O)CN1[C@@H]2CCC[C@H]1C[C@H](N(C)c1nc(Nc3cc(C)[nH]n3)cc(O[C@@H]3CCOC3)n1)C2",
    "solubility at 4 h": "> 10000 µg/mL"
  },
  {
    "Item smiles": "CCNC(=O)CN1[C@@H]2CCC[C@H]1C[C@H](N(C)c1nc(Nc3cc(C)[nH]n3)cc(O[C@H]3CCOC3)n1)C2",
    "solubility at 4 h": "> 10000 µg/mL"
  },
  {
    "Item smiles": "Cc1cc(Nc2cc(O[C@@H]3CCOC3)nc(N(C)[C@@H]3C[C@H]4CCC[C@@H](C3)N4C(=O)CC3CC3)n2)n[nH]1",
    "solubility at 4 h": "< 5000 µg/mL"
  },
  {
    "Item smiles": "CCS(=O)(=O)N1[C@@H]2CCC[C@H]1C[C@H](N(C)c1nc(Nc3cc(C)[nH]n3)cc(C3CCOCC3)n1)C2",
    "solubility at 4 h": "> 10000 µg/mL"
  },
  {
    "Item smiles": "COCCC(=O)N1[C@@H]2CCC[C@H]1C[C@H](N(C)c1nc(Nc3cc(C)[nH]n3)cc(O[C@H]3CCOC3)n1)C2",
    "solubility at 4 h": "5000 to 10000 µg/mL"
  },
  {
    "Item smiles": "COC(=O)N1[C@@H]2CCC[C@H]1C[C@H](N(C)c1nc(Nc3cc(C)[nH]n3)cc(OC3COC3)n1)C2",
    "solubility at 4 h": "> 10000 µg/mL"
  },
  {
    "Item smiles": "COCCOC(=O)N1[C@@H]2CCC[C@H]1C[C@H](N(C)c1nc(Nc3cc(C)[nH]n3)cc(O[C@@H]3CCOC3)n1)C2",
    "solubility at 4 h": "> 10000 µg/mL"
  }
]
